These entries and their values trace back to PubChem BioAssay (NCATS).

PROTOCOL_NOTES: qHTS assay for environmental chemicals that activate the Aryl hydrocarbon Receptor (AhR) signaling pathway (AID 651777); further: % of control where 0% means no effect; nearly all actives have a fitted effect of over 15% in size
CONDITIONS: 1A2-DRE human hepatoma cells, luciferase, 24 h; active compounds read high
Results filed as inconclusive are left out.
Please respond with reported activation for every item in the list.
Numbers only here, please. The scale is %.

Measured activation, Nc1ccc(N)c([N+](=O)[O-])c1 : 3.75

Note to self: activation recorded for CCN(Cc1cccc(S(=O)(=O)O)c1)c1ccc(C(=C2C=CC(=[N+](CC)Cc3cccc(S(=O)(=O)O)c3)C=C2)c2ccccc2S(=O)(=O)[O-])cc1 was -6.97

activation reading for CC(C)=CCC/C(C)=C/CC/C(C)=C/CO : 1.51

# activation of Clc1ccc(-c2nc3sccn3c2/C=N/OCc2ccc(Cl)c(Cl)c2)cc1 = 3.66
